Assay: Inhibition of RET isoform 15 C634R mutant (unknown origin) expressed in mouse BAF3 cells assessed as reduction in cell proliferation supplemented with fresh medium containing compound for every 2 to 3 days and measured daily
test_readout: IC50 (nM)
Quick reminder: number only, in nM, skip the unit.

Request: Check the records and state IC50 for CC(C)(C)c1cc(NC(=O)Cc2ccc(-n3cnc4cc(-c5ccc(S(C)(=O)=O)cc5)ccc43)cc2)no1
Response: 1.7

###

Biological target: Proto-oncogene tyrosine-protein kinase receptor Ret (Homo sapiens, UniProt P07949)
Experiment: Inhibition of RET isoform 9 M918T mutant in human MZ-CRC-1 cells assessed as reduction in cell proliferation supplemented with fresh medium containing compound for every 2 to 3 days and measured during compound dosing
Sequence (P07949 29-1114 M918T limits assumed): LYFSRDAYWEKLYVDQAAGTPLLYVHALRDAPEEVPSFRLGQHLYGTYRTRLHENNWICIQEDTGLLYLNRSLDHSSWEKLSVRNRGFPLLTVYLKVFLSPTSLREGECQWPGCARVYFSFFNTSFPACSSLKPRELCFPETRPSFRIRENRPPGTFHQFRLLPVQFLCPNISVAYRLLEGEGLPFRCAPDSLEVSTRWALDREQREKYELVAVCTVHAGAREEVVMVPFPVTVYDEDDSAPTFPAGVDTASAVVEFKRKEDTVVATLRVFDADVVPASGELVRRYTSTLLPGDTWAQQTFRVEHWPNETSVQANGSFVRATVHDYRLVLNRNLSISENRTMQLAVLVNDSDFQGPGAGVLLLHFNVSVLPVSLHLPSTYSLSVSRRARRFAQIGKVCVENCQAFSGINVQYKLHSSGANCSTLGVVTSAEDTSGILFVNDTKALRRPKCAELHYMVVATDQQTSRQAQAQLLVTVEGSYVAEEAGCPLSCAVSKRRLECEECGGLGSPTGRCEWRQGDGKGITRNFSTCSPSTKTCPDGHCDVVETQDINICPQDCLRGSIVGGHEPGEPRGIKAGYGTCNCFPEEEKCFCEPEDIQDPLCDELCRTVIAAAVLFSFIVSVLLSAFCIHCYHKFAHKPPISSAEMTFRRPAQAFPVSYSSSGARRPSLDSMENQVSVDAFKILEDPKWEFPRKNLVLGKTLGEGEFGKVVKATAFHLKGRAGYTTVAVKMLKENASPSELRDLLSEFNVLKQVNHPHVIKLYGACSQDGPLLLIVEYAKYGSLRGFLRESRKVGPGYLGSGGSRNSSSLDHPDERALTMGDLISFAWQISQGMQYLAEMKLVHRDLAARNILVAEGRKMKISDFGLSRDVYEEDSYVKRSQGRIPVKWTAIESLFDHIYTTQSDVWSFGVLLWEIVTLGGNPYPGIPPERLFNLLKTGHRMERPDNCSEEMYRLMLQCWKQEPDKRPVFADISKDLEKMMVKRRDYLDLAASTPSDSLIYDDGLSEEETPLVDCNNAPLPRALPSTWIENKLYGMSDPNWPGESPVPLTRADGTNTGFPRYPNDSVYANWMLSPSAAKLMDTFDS
test_readout: IC50 (nM)
// note: answer is a bare numeric in nM

Request: Lab note: Proto-oncogene tyrosine-protein kinase receptor Ret (Homo sapiens, UniProt P07949) assay, enter IC50 for CC(C)(C)c1cc(NC(=O)Cc2ccc(-n3cnc4cc(-c5ccc(S(C)(=O)=O)cc5)ccc43)cc2)no1 here
Response: 0.67

###

Biological target: Proto-oncogene tyrosine-protein kinase receptor Ret (Homo sapiens)
Test: Inhibition of CCDC6/RET in human TPC1 cells assessed as reduction in cell proliferation supplemented with fresh medium containing compound for every 2 to 3 days and measured during compound dosing
Sequence (P07949 whole entry, looked up, canonical isoform): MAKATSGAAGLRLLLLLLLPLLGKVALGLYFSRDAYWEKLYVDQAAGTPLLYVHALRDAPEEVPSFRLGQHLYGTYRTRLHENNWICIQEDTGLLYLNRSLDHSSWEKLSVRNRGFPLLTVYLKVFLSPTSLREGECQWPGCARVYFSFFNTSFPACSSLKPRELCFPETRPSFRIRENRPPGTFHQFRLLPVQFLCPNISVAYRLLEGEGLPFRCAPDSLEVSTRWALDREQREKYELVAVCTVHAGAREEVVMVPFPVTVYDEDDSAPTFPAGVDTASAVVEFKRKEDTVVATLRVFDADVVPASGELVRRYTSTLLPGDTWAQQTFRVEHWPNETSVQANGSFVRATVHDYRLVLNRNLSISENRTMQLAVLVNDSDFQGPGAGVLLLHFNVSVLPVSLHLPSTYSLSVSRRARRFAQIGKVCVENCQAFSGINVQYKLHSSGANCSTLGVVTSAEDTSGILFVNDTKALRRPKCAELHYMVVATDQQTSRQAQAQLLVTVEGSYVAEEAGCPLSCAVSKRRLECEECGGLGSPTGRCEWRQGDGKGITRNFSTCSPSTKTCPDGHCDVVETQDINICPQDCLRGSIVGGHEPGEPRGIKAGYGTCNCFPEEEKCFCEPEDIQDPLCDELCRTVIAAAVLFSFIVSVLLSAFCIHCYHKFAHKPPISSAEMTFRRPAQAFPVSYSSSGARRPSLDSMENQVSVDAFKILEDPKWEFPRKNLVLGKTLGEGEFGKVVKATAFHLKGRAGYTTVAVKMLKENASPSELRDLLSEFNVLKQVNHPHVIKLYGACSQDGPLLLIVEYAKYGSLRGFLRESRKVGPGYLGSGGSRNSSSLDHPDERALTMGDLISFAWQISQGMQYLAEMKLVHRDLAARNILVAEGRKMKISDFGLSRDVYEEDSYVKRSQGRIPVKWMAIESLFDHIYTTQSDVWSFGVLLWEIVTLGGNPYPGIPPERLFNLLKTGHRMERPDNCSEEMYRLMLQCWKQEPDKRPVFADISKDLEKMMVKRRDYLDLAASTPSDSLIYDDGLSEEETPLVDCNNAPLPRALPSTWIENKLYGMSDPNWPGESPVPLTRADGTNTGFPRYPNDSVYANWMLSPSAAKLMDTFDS
test_readout: pIC50
Please treat pIC50 as minus the base-10 logarithm of the molar concentration.

Request: State pIC50 (Proto-oncogene tyrosine-protein kinase receptor Ret (Homo sapiens)) of CC(C)(C)c1cc(NC(=O)Cc2ccc(-n3cnc4cc(-c5ccc(S(C)(=O)=O)cc5)ccc43)cc2)no1 .
Response: 9.17

###

Assay: Inhibition of RET isoform 15 M918T mutant (unknown origin) expressed in mouse BAF3 cells assessed as reduction in cell proliferation supplemented with fresh medium containing compound for every 2 to 3 days and measured daily
test_readout: pIC50
Interpret pIC50 as the negative base-10 log of the concentration measured in mol/L.

Request: Identify pIC50 associated with the molecule CC(C)(C)c1cc(NC(=O)Cc2ccc(-n3cnc4cc(-c5ccc(S(C)(=O)=O)cc5)ccc43)cc2)no1
Response: 8.80

###

Assay: Inhibition of RET isoform 9 C634Y mutant (unknown origin) expressed in mouse NIH/3T3 cells assessed as reduction in cell proliferation supplemented with fresh medium containing compound for every 2 to 3 days measured at 2 days interval during compound dosing
test_readout: IC50 (nM)
// return numeric value only (unit: nM, not printed)

Request: For the compound CC(C)(C)c1cc(NC(=O)Cc2ccc(-n3cnc4cc(-c5ccc(S(C)(=O)=O)cc5)ccc43)cc2)no1 , give its measured IC50 value.
Response: 4.2
